# Assay Comment: Stability in mouse plasma assessed as compound remaining relative to control; further: time not given here
# Assay type: ADME, cell-free
Metric: Stabilty (%)

{"Smiles Notation": "Cc1ccc(NC(=O)[C@@H](C)n2ncc(Cl)c(Cl)c2=O)cc1S(=O)(=O)NCCc1ccccn1", "Unit Name": "%", "Experimental Result": 97}
{"Smiles Notation": "Cc1ccc(N(C)C(=O)Cn2ncc(Cl)c(Cl)c2=O)cc1S(=O)(=O)NCCc1ccccn1", "Unit Name": "%", "Experimental Result": 86}
{"Smiles Notation": "Cc1ccc(NC(=O)Cn2ncc(Cl)c(Cl)c2=O)cc1S(=O)(=O)NCCc1cccnc1", "Unit Name": "%", "Experimental Result": 21}
{"Smiles Notation": "Cc1ccc(NC(=O)[C@H](C)n2ncc(Cl)c(Cl)c2=O)cc1S(=O)(=O)NCCc1ccccn1", "Unit Name": "%", "Experimental Result": 92}
{"Smiles Notation": "Cc1ccc(NC(=O)Cn2ncc(Cl)c(Cl)c2=O)cc1S(=O)(=O)N1CCN(C)CC1", "Unit Name": "%", "Experimental Result": 0}
{"Smiles Notation": "Cc1ccc(NC(=O)Cn2ncc(Cl)c(Cl)c2=O)nc1S(=O)(=O)NCCc1ccccn1", "Unit Name": "%", "Experimental Result": 75}
{"Smiles Notation": "Cc1ncc(NC(=O)Cn2ncc(Cl)c(Cl)c2=O)cc1S(=O)(=O)N1CCCN(C)CC1", "Unit Name": "%", "Experimental Result": 3}

a = Cc1ccc(NC(=O)Cn2ncc(Cl)c(Cl)c2=O)cc1S(=O)(=O)N1CCCN(C)CC1
b = Cc1ccc(NC(=O)Cn2ncc(Cl)c(Cl)c2=O)cc1S(=O)(=O)NCCc1ccncc1
Please indicate which item has the smaller measured Stabilty: a versus b When you have decided, please share the label of that item. a
(a: 0%, b: 2%)

----------
# System: PRMT5/MEP50 complex (Homo sapiens)
# Assay Comment: Displacement of fluorophore-labeled RIOK1 from human PRMT5/WDR77 hetero octameric complex expressed in Sf9 cells by competition fluorescence polarization (FP) assay
pIC50: −log10 of the molar value.
Metric: pIC50

Please review the entries below; each comes with its answer.
{"Smiles Notation": "Cc1ccc(NC(=O)Cn2ncc(Cl)c(Cl)c2=O)cc1S(=O)(=O)NCCc1cccnc1", "System": "PRMT5/MEP50 complex (Homo sapiens)", "Experimental Result": 5.34}
{"Smiles Notation": "O=C(Cn1ncc(Cl)c(Cl)c1=O)Nc1cccc(S(=O)(=O)NCCc2ccccn2)c1", "System": "PRMT5/MEP50 complex (Homo sapiens)", "Experimental Result": 4.72}
{"Smiles Notation": "Cc1ccc(NC(=O)Cn2ncc(Cl)c(Cl)c2=O)cc1S(=O)(=O)NCCc1ccccn1", "System": "PRMT5/MEP50 complex (Homo sapiens)", "Experimental Result": 5.66}
{"Smiles Notation": "Cc1ccc(NC(=O)Cn2ncc(Cl)cc2=O)cc1S(=O)(=O)NCCc1ccccn1", "System": "PRMT5/MEP50 complex (Homo sapiens)", "Experimental Result": 4.14}
{"Smiles Notation": "Cc1ccc(NC(=O)[C@H](C)n2ncc(Cl)c(Cl)c2=O)cc1S(=O)(=O)NCCc1ccccn1", "System": "PRMT5/MEP50 complex (Homo sapiens)", "Experimental Result": 6.52}
{"Smiles Notation": "Cc1ccc(NC(=O)Cn2ncc(Cl)c(Cl)c2=O)cc1S(=O)(=O)NCCc1ccncc1", "System": "PRMT5/MEP50 complex (Homo sapiens)", "Experimental Result": 5.60}
{"Smiles Notation": "Cc1cc(C)c(S(=O)(=O)NCCc2ccccn2)cc1NC(=O)Cn1ncc(Cl)c(Cl)c1=O", "System": "PRMT5/MEP50 complex (Homo sapiens)", "Experimental Result": 5.21}
{"Smiles Notation": "Cc1ccc(NC(=O)Cn2ncc(Cl)c(Cl)c2=O)c(C)c1S(=O)(=O)NCCc1ccccn1", "System": "PRMT5/MEP50 complex (Homo sapiens)", "Experimental Result": 4.41}

A = Cc1ccc(NC(=O)Cn2ncc(Cl)c(Cl)c2=O)cc1S(=O)(=O)N(C)C
B = Cc1ccc(NC(=O)Cn2ncc(Cl)c(Cl)c2=O)nc1S(=O)(=O)NCCc1ccccn1
Could you please tell me which of these two has the higher pIC50: A or B ? When you have decided, please share the label of that item. B
(B: 5.35, A: 4.85)

P = Cc1ccc(NC(=O)Cn2ncc(Cl)c(Cl)c2=O)cc1S(=O)(=O)N1CCCN(C)CC1
Q = Cc1cc(NC(=O)Cn2ncc(Cl)c(Cl)c2=O)cc(S(=O)(=O)NCCc2ccccn2)c1C
Could you please tell me which of these two has the higher pIC50: P or Q ? When you have decided, please share the label of that item. Q
(Q: 5.60, P: 5.27)

I = CCc1ccc(NC(=O)Cn2ncc(Cl)c(Cl)c2=O)cc1S(=O)(=O)NCCc1ccccn1
II = Cc1ccc(NC(=O)Cn2ncc(Cl)c(Cl)c2=O)cc1S(=O)(=O)N1CCCCC1
III = Cc1ccc(NC(=O)Cn2ncc(F)cc2=O)cc1S(=O)(=O)NCCc1ccccn1
List the 3 entries from lowest pIC50 to highest pIC50 value. Please write the labels in the order that was asked for. III, II, I

----------
# System: PRMT5/MEP50 complex (Homo sapiens, UniProt O14744)
# Sequence (O14744 whole entry): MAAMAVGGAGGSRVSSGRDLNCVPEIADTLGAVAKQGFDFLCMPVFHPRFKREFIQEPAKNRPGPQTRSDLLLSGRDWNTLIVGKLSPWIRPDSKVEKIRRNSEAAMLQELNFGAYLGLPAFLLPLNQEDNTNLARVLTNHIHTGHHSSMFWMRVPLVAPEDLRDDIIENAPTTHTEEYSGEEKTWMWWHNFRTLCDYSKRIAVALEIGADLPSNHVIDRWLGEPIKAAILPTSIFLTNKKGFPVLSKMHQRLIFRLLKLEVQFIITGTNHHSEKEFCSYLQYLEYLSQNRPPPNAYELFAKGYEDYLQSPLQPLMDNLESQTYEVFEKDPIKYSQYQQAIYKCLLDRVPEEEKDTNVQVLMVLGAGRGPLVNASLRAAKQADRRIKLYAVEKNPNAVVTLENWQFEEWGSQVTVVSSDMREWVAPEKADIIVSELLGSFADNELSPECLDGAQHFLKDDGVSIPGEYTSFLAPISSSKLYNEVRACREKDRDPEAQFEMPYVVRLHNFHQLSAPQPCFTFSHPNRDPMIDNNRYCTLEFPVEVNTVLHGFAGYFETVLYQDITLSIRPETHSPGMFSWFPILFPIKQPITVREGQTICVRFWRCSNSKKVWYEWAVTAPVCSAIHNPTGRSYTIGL
# Sequence (Q9BQA1 whole entry, further chain): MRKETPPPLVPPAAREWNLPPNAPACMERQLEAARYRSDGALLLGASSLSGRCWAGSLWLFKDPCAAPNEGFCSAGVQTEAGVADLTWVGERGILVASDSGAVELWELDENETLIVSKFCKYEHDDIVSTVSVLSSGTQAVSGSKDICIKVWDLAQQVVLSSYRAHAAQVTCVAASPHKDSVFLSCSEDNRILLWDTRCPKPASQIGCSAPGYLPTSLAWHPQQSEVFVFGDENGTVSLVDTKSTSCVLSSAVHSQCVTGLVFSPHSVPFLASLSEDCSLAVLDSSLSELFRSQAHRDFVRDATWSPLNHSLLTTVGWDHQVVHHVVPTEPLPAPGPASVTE
# Assay Comment: Displacement of fluorophore-labeled RIOK1 from human PRMT5/WDR77 hetero octameric complex expressed in Sf9 cells by competition fluorescence polarization (FP) assay
Metric: IC50 (µM)

{"Smiles Notation": "Cc1ccc(NC(=O)[C@@H](C)n2ncc(Cl)c(Cl)c2=O)cc1S(=O)(=O)NCCc1ccccn1", "IC50, µM": 55.4}
{"Smiles Notation": "Cc1ccc(NC(=O)Cn2ncc(F)c(Cl)c2=O)cc1S(=O)(=O)NCCc1ccccn1", "IC50, µM": 0.37}

a = Cc1ccc(NC(=O)Cn2ncc(Cl)c(Cl)c2=O)cc1S(=O)(=O)N1CCN(C)CC1
b = COc1ccc(NC(=O)Cn2ncc(Cl)c(Cl)c2=O)cc1S(=O)(=O)NCCc1ccccn1
c = Cc1ccc(NC(=O)Cn2ncc(F)c(C)c2=O)cc1S(=O)(=O)NCCc1ccccn1
Output the entries ranked by IC50 from maximum down to minimum. Please write the labels in the order that was asked for. c, b, a
(c: 72.1 µM, b: 23.3 µM, a: 10.1 µM)

Hey, just so you know, these numbers are from ChEMBL document CHEMBL4825730.
